For each record, write down the corresponding fraction ligated.
B1: minF1; the commonest letter at each place (parent)
chain: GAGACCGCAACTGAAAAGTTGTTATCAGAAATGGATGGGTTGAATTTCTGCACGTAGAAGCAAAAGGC

# Variants of: B1
# MEASUREMENT_PROTOCOL: fraction ligated after 30 min (ligated reads / total reads); higher = more ligase activity
# RUN_PARAMETERS: with F1*subA RNA substrate (template-directed ligation), 42 °C
One number for each entry.

Here is how some variants turned out for fraction ligated.
[
  {
    "CHANGE": "C26G A31T",
    "fraction ligated": 0.0387
  },
  {
    "CHANGE": "A31T T32C",
    "fraction ligated": 0.0483
  }
]

For every listed record, write down its fraction ligated.
1. C26G G42A
2. T32G A35C
3. T36G G42T
4. T23A A35G
5. A31C A43C
6. C26A A44G
7. T23G T25C

output:
[0.00168, 0.00432, 0.000662, 0.0122, 0.0314, 0.03, 0.153]

Batch lookup, fraction ligated per entry.
1. T25C T32G
2. G34C A35G

output:
[0.00219, 0.00539]

From: the supplement of paper PMC6755084
